- targetOrSystem: T1, VEZF1 (Homo sapiens, UniProt Q14119)
- T1 sequence: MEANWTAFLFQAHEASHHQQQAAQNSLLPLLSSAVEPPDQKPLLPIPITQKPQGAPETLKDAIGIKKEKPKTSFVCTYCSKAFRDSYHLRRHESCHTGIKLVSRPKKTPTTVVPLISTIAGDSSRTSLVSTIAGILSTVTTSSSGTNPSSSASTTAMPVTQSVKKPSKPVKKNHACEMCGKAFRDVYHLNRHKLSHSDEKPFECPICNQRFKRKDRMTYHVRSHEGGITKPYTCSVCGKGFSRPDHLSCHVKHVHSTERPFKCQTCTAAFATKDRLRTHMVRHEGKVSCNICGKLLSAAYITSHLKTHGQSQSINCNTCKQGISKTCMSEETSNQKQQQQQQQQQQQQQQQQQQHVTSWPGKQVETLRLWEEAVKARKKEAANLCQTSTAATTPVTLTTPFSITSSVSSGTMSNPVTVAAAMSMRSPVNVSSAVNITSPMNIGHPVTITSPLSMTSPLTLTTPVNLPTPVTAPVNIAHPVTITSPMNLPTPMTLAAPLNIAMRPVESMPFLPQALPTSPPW
- assay: pulldown; 150 mM NaCl, 50 mM Tris pH 8, 0.25% NP-40, 1 mM TCEP; 4 C, 2 h; 100 ug HeLa nuclear lysate
- conditionDescription: protein: extract; label: 5' biotin (strand 1)
Reported apparent K (half saturation) values for a set of binders
Supply the numeric figure in nM, leaving out any unit text.

binder	endpointResult
TATA-box (dsDNA) DNA 1: GCGGCGCTCTATATAAGTGGGCAGTG DNA 2: CACTGCCCACTTATATAGAGCGCCGC	227
AP-1 (dsDNA) DNA 1: AGTCGGCTAGCTGACTCAGGATGTCC DNA 2: GGACATCCTGAGTCAGCTAGCCGACT	255
NF-Y (dsDNA) DNA 1: ATTGACCAATCAGAGGTAGGATGAT DNA 2: ATCATCCTACCTCTGATTGGTCAAT	249
TEAD (dsDNA) DNA 1: TCGGGACCCAGGCCTGGAATGTTTCCACC DNA 2: GGTGGAAACATTCCAGGCCTGGGTCCCGA	225
CTCF (dsDNA) DNA 1: TCAGAGTGGCGGCCAGCAGGGGGCGCCCTTGCCAGA DNA 2: TCTGGCAAGGGCGCCCCCTGCTGGCCGCCACTCTGA	34.1

Turning to the following binder.
So what does the record say about apparent K (half saturation) for SP/KLF wild-type (dsDNA) DNA 1: GAGAGCCCCGCCCCCTGGCT DNA 2: AGCCAGGGGGCGGGGCTCTC ? 182

src = paper PMC5916898
